- System: 817829-284-R-J1-PDC complex spheroids, viability
- PROCEDURE TEXT: Anticancer human tumor 817829-284-R-J1-PDC patient-derived colon adenocarcinoma cell line growth inhibition [CLK]
- MEASUREMENT CONTEXT: second compound 0.316 µM; first compound 0.1 µM; active compounds read low
- Text: A high-throughput screen of multi-cell type tumor spheroids was designed to identify active combinations of […] and targeted small molecules. Complex spheroids include a stromal component modeled by human endothelial cells (HUVEC) and fibroblasts modeled by human mesenchymal stem cells (MSCs). […] Compounds. […] If the clinical Cmax for an agent had not been determined, the highest concentration tested was 10 microM. […]
VALUE TYPE: viability, T/C (%)

O=c1[nH]cc(F)c(=O)[nH]1 + CNC(=O)c1ccc(Nc2nc(OC3CCCC3)c3c(-c4ccc5nc(C)oc5c4)c[nH]c3n2)c(OC)c1	26.6
COc1c(OCCCN2CCOCC2)ccc2c3n(c(=NC(=O)c4cnc(N)nc4)nc12)CCN3 + CN1CCN(c2cc(C(=O)Nc3cc4cc(-c5cnn(C)c5)ccc4cn3)ccn2)CC1	0.73
C=C(F)C(=O)N1CCN(c2nc(OCC3CCCN3C)nc3c2CCN(c2cccc4cccc(Cl)c24)C3)CC1CC#N (configuration not stated) + CN1CCN(c2cc(C(=O)Nc3cc4cc(-c5cnn(C)c5)ccc4cn3)ccn2)CC1	2.26
CC(CO)NC(=O)c1cc(-c2ccc(Cl)cc2)nn(-c2cnn(C)c2)c1=O (configuration not stated) + CN1CCN(c2cc(C(=O)Nc3cc4cc(-c5cnn(C)c5)ccc4cn3)ccn2)CC1	2.2
Nc1ccn(C2OC(CO)C(O)C2(F)F)c(=O)n1 (configuration not stated) + CNC(=O)c1ccc(Nc2nc(OC3CCCC3)c3c(-c4ccc5nc(C)oc5c4)c[nH]c3n2)c(OC)c1	6.1
O=c1[nH]cc(F)c(=O)[nH]1 + CN1CCN(c2cc(C(=O)Nc3cc4cc(-c5cnn(C)c5)ccc4cn3)ccn2)CC1	2.52
Nc1ccn(C2OC(CO)C(O)C2(F)F)c(=O)n1 (configuration not stated) + CN1CCN(c2cc(C(=O)Nc3cc4cc(-c5cnn(C)c5)ccc4cn3)ccn2)CC1	1.94
CCN1CCN(Cc2ccc(Nc3ncc(F)c(-c4cc(F)c5nc(C)n(C(C)C)c5c4)n3)nc2)CC1 + CN1CCN(c2cc(C(=O)Nc3cc4cc(-c5cnn(C)c5)ccc4cn3)ccn2)CC1	1.6
COC1C=CCC(C)C(C)S(=O)(=O)NC(=O)c2ccc3c(c2)N(CC2CCC21)CC1(CCCc2cc(Cl)ccc21)CO3 (configuration not stated) + CNC(=O)c1ccc(Nc2nc(OC3CCCC3)c3c(-c4ccc5nc(C)oc5c4)c[nH]c3n2)c(OC)c1	31.2
C=CC(=O)N1CCN(c2nc(=O)n(-c3c(C)ccnc3C(C)C)c3nc(-c4c(O)cccc4F)c(F)cc23)C(C)C1 (configuration not stated) + CNC(=O)c1ccc(Nc2nc(OC3CCCC3)c3c(-c4ccc5nc(C)oc5c4)c[nH]c3n2)c(OC)c1	35.2
C#Cc1c(F)ccc2cc(O)cc(-c3ncc4c(N5CC6CCC(C5)N6)nc(OCC56CCCN5CC(F)C6)nc4c3F)c12 (configuration not stated) + CN1CCN(c2cc(C(=O)Nc3cc4cc(-c5cnn(C)c5)ccc4cn3)ccn2)CC1	2.39
CC(=O)O[C@H]1C(=O)[C@@]2(C)[C@H]([C@H](OC(=O)c3ccccc3)[C@]3(O)C[C@H](OC(=O)[C@H](O)[C@@H](NC(=O)c4ccccc4)c4ccccc4)C(C)=C1C3(C)C)[C@]1(OC(C)=O)CO[C@@H]1C[C@@H]2O + CN1CCN(c2cc(C(=O)Nc3cc4cc(-c5cnn(C)c5)ccc4cn3)ccn2)CC1	2.26

---

- Test system: 817829-284-R-J1-PDC complex spheroids, viability
- PROCEDURE TEXT: Anticancer human tumor 817829-284-R-J1-PDC cell line growth inhibition [CLK];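 note: spheroids exposed to the agents for seven days before readout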
- MEASUREMENT CONTEXT: second compound 0.1 µM; first compound 3.16 µM; active compounds read low
VALUE TYPE: viability, T/C (%)

Nc1ccccc1NC(=O)c1ccc(CNC(=O)OCc2cccnc2)cc1 + CN1CCN(c2cc(C(=O)Nc3cc4cc(-c5cnn(C)c5)ccc4cn3)ccn2)CC1	0.84
CCCS(=O)(=O)Nc1ccc(F)c(C(=O)c2c[nH]c3ncc(-c4ccc(Cl)cc4)cc23)c1F + CNC(=O)c1ccc(Nc2nc(OC3CCCC3)c3c(-c4ccc5nc(C)oc5c4)c[nH]c3n2)c(OC)c1	21.1
C=C(F)C(=O)N1CCN(c2nc(OCC3CCCN3C)nc3c2CCN(c2cccc4cccc(Cl)c24)C3)CC1CC#N (stereo not drawn) + CN1CCN(c2cc(C(=O)Nc3cc4cc(-c5cnn(C)c5)ccc4cn3)ccn2)CC1	9.48

---

Attribute: viability, T/C
- Tested on: 817829-284-R-J1-PDC complex spheroids, viability
- PROCEDURE TEXT: Anticancer human tumor 817829-284-R-J1-PDC cell line growth inhibition [CLK];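 note: spheroids exposed to the agents for seven days before readout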
- MEASUREMENT CONTEXT: second compound 10 µM; first compound 0.3 µM; active compounds read low
VALUE TYPE: viability, T/C

NC(=O)C(=Cn1cnc(-c2cc(C(F)(F)F)cc(C(F)(F)F)c2)n1)c1cncnc1 + CN1CCN(c2cc(C(=O)Nc3cc4cc(-c5cnn(C)c5)ccc4cn3)ccn2)CC1	0.1%
C=CC(=O)Nc1cc(Nc2nccc(-c3cn(C)c4ccccc34)n2)c(OC)cc1N(C)CCN(C)C + CN1CCN(c2cc(C(=O)Nc3cc4cc(-c5cnn(C)c5)ccc4cn3)ccn2)CC1	0.13%
CC(C)CC(NC(=O)C(Cc1ccccc1)NC(=O)c1cnccn1)B(O)O (centres undefined) + CNC(=O)c1ccc(Nc2nc(OC3CCCC3)c3c(-c4ccc5nc(C)oc5c4)c[nH]c3n2)c(OC)c1	0.11%
CC(C)CC(NC(=O)C(Cc1ccccc1)NC(=O)c1cnccn1)B(O)O (centres undefined) + CN1CCN(c2cc(C(=O)Nc3cc4cc(-c5cnn(C)c5)ccc4cn3)ccn2)CC1	0.11%

---

- Tested on: 817829-284-R-J1-PDC complex spheroids, viability
- PROCEDURE TEXT: Anticancer human tumor 817829-284-R-J1-PDC cell line growth inhibition [CLK]; active means viability on the fitted dose curve at most 10% of control; inactive means the rest;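 note: spheroids exposed to the agents for seven days before readout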
- MEASUREMENT CONTEXT: second compound 0.1 µM; first compound 0.0316 µM
Classes used: active, inactive

C=C(F)C(=O)N1CCN(c2nc(OCC3CCCN3C)nc3c2CCN(c2cccc4cccc(Cl)c24)C3)CC1CC#N (stereo not given) + CNC(=O)c1ccc(Nc2nc(OC3CCCC3)c3c(-c4ccc5nc(C)oc5c4)c[nH]c3n2)c(OC)c1	inactive
CCN1CCN(Cc2ccc(Nc3ncc(F)c(-c4cc(F)c5nc(C)n(C(C)C)c5c4)n3)nc2)CC1 + CN1CCN(c2cc(C(=O)Nc3cc4cc(-c5cnn(C)c5)ccc4cn3)ccn2)CC1	inactive
CC1(C)CCC(CN2CCN(c3ccc(C(=O)NS(=O)(=O)c4ccc(NCC5CCOCC5)c([N+](=O)[O-])c4)c(Oc4cnc5[nH]ccc5c4)c3)CC2)=C(c2ccc(Cl)cc2)C1 + CN1CCN(c2cc(C(=O)Nc3cc4cc(-c5cnn(C)c5)ccc4cn3)ccn2)CC1	inactive
CCc1c2c(nc3ccc(O)cc13)-c1cc3c(c(=O)n1C2)COC(=O)[C@]3(O)CC + CNC(=O)c1ccc(Nc2nc(OC3CCCC3)c3c(-c4ccc5nc(C)oc5c4)c[nH]c3n2)c(OC)c1	inactive
Nc1ccn(C2OC(CO)C(O)C2(F)F)c(=O)n1 (stereo not given) + CNC(=O)c1ccc(Nc2nc(OC3CCCC3)c3c(-c4ccc5nc(C)oc5c4)c[nH]c3n2)c(OC)c1	active
CC(=O)O[C@H]1C(=O)[C@@]2(C)[C@H]([C@H](OC(=O)c3ccccc3)[C@]3(O)C[C@H](OC(=O)[C@H](O)[C@@H](NC(=O)c4ccccc4)c4ccccc4)C(C)=C1C3(C)C)[C@]1(OC(C)=O)CO[C@@H]1C[C@@H]2O + CNC(=O)c1ccc(Nc2nc(OC3CCCC3)c3c(-c4ccc5nc(C)oc5c4)c[nH]c3n2)c(OC)c1	inactive
Cn1ncnc1[C@H]1c2n[nH]c(=O)c3cc(F)cc(c23)N[C@@H]1c1ccc(F)cc1 + CN1CCN(c2cc(C(=O)Nc3cc4cc(-c5cnn(C)c5)ccc4cn3)ccn2)CC1	inactive
Nc1ccn(C2OC(CO)C(O)C2(F)F)c(=O)n1 (stereo not given) + CN1CCN(c2cc(C(=O)Nc3cc4cc(-c5cnn(C)c5)ccc4cn3)ccn2)CC1	active
C#Cc1c(F)ccc2cc(O)cc(-c3ncc4c(N5CC6CCC(C5)N6)nc(OCC56CCCN5CC(F)C6)nc4c3F)c12 (stereo not given) + CN1CCN(c2cc(C(=O)Nc3cc4cc(-c5cnn(C)c5)ccc4cn3)ccn2)CC1	inactive
CC1COCCN1c1cc(C2(S(C)(=N)=O)CC2)nc(-c2ccnc3[nH]ccc23)n1 (stereo not given) + CN1CCN(c2cc(C(=O)Nc3cc4cc(-c5cnn(C)c5)ccc4cn3)ccn2)CC1	inactive
O=C(c1cc(Cc2n[nH]c(=O)c3ccccc23)ccc1F)N1CCN(C(=O)C2CC2)CC1 + CN1CCN(c2cc(C(=O)Nc3cc4cc(-c5cnn(C)c5)ccc4cn3)ccn2)CC1	inactive
C=CC(=O)N1CCN(c2nc(=O)n(-c3c(C)ccnc3C(C)C)c3nc(-c4c(O)cccc4F)c(F)cc23)C(C)C1 (stereo not given) + CN1CCN(c2cc(C(=O)Nc3cc4cc(-c5cnn(C)c5)ccc4cn3)ccn2)CC1	inactive
CC(Nc1ccc2c(c1)OCCn1cc(N3C(=O)OCC3C(F)F)nc1-2)C(N)=O (stereo not given) + CNC(=O)c1ccc(Nc2nc(OC3CCCC3)c3c(-c4ccc5nc(C)oc5c4)c[nH]c3n2)c(OC)c1	inactive
COc1c(OCCCN2CCOCC2)ccc2c3n(c(=NC(=O)c4cnc(N)nc4)nc12)CCN3 + CNC(=O)c1ccc(Nc2nc(OC3CCCC3)c3c(-c4ccc5nc(C)oc5c4)c[nH]c3n2)c(OC)c1	inactive
CCCS(=O)(=O)Nc1ccc(F)c(C(=O)c2c[nH]c3ncc(-c4ccc(Cl)cc4)cc23)c1F + CN1CCN(c2cc(C(=O)Nc3cc4cc(-c5cnn(C)c5)ccc4cn3)ccn2)CC1	inactive
O=c1[nH]cc(F)c(=O)[nH]1 + CNC(=O)c1ccc(Nc2nc(OC3CCCC3)c3c(-c4ccc5nc(C)oc5c4)c[nH]c3n2)c(OC)c1	inactive
COC1C=CCC(C)C(C)S(=O)(=O)NC(=O)c2ccc3c(c2)N(CC2CCC21)CC1(CCCc2cc(Cl)ccc21)CO3 (stereo not given) + CNC(=O)c1ccc(Nc2nc(OC3CCCC3)c3c(-c4ccc5nc(C)oc5c4)c[nH]c3n2)c(OC)c1	inactive
COC1C=CCC(C)C(C)S(=O)(=O)NC(=O)c2ccc3c(c2)N(CC2CCC21)CC1(CCCc2cc(Cl)ccc21)CO3 (stereo not given) + CN1CCN(c2cc(C(=O)Nc3cc4cc(-c5cnn(C)c5)ccc4cn3)ccn2)CC1	inactive
CC(Nc1ccc2c(c1)OCCn1cc(N3C(=O)OCC3C(F)F)nc1-2)C(N)=O (stereo not given) + CN1CCN(c2cc(C(=O)Nc3cc4cc(-c5cnn(C)c5)ccc4cn3)ccn2)CC1	inactive
CCCS(=O)(=O)Nc1ccc(F)c(C(=O)c2c[nH]c3ncc(-c4ccc(Cl)cc4)cc23)c1F + CNC(=O)c1ccc(Nc2nc(OC3CCCC3)c3c(-c4ccc5nc(C)oc5c4)c[nH]c3n2)c(OC)c1	inactive
